Recorded melting point for the following compounds

Some solved entries appear below for comparison.
# MOL, METRIC NAME, ASSAY RESULT
data = [
    ("COC[C@@H]1CN(CCN2CCN(C(=O)c3cc(C(F)(F)F)cc(S(=O)(=O)N4CCOCC4)c3)[C@H](Cc3ccc(C)c(O)c3)C2)CCO1.Cl.Cl", "melting point", "130 to 175 °C"),
    ("Cc1ccc(C[C@@H]2CN(Cc3csc(N(C)C)n3)CCN2C(=O)c2cc(C(F)(F)F)cc(C(F)(F)F)c2)cc1O.Cl.Cl", "melting point", "162 to 165 °C"),
    ("Cl.Cl.Cl.O=C(c1cc(C(F)(F)F)cc(C(F)(F)F)c1)N1CCN(CCN2CCc3ncccc3C2)C[C@H]1Cc1ccc(C(F)(F)F)cc1", "melting point", "174 to 180 °C"),
    ("CNc1cc(C[C@@H]2CN(CCN3CCO[C@H](COC)C3)CCN2C(=O)c2cc(C(F)(F)F)cc(C(F)(F)F)c2)ccc1C.Cl.Cl.Cl", "melting point", "156 to 163 °C"),
    ("COCC1(COC)CN(CCN2CCN(C(=O)c3cc(C(F)(F)F)cc(C(F)(F)F)c3)[C@H](Cc3ccc(C(F)(F)F)cc3)C2)CCO1.Cl.Cl", "melting point", "123 to 149 °C"),
    ("COC[C@@H]1CN(CCN2CCN(C(=O)c3cc(C(F)(F)F)cc(C(F)(F)F)c3)[C@H](Cc3ccc(C(F)(F)F)cc3)C2)C[C@H](COC)O1.Cl.Cl", "melting point", "130 to 138 °C"),
]

Short answer for `COC[C@@H]1CN(C/C=C/CN2CCN(C(=O)c3cc(C(F)(F)F)cc(C(F)(F)F)c3)[C@H](Cc3ccc(C)c(O)c3)C2)CCO1.Cl.Cl` : melting point was 50 to 70 °C

Field melting point (entry `COC[C@@H]1CN(CCN2CCN(C(=O)c3cc(N(C)C)cc(C(F)(F)F)c3)[C@H](Cc3ccc(C)c(O)c3)C2)CCO1.Cl.Cl` ) reads 182 to 186 °C

Entry `COC[C@@H]1CN(CCCN2CCN(C(=O)c3cc(C(F)(F)F)cc(C(F)(F)F)c3)[C@H](Cc3ccc(C)c(O)c3)C2)CCO1.Cl.Cl` , melting point reported as 150 to 170 °C
